Sourced from PubChem BioAssay (EPA / NIEHS)

Read-out: Interleukin-1 alpha (IL1a), IL1A (gene 3552)
Assay: BSK_LPS_IL1a: BioMAP Diversity Plus: LPS Assay for Interleukin-1 alpha (IL1a) Biomarker Activity (AID 2283080)
Conditions: primary human HUVEC with PBMC; actives raise or lower the signal
Procedure: BSK_LPS is a cell-based, multiplexed-readout assay that uses umbilical vein endothelium and peripheral blood mononuclear cells, a human vascular primary cell co-culture, with measurements taken at 24 hours after chemical dosing in a 96-well plate.BSK_LPS_IL1a is an assay component measured in the BSK_LPS assay. It measures IL-a antibody related to regulation of gene expression using ELISA technology.Data from the assay component BSK_LPS_IL1a was analyzed into 1 assay endpoint. […]
Activity calls are given as the source filed them. Rule for the calls: active = hit-call score of the fitted dose curve at least 0.9, where 1 is the maximum; inactive = score below 0.9.
Thanks in advance; please answer with one of these: active, inactive

Recorded test call requested for CN(C)CCCN(C)CCCN(C)C
inactive

Recorded test call requested for O=C(Oc1ccccc1)c1cccc(C(=O)Oc2ccccc2)c1
inactive

Recorded test call requested for CCCCCCCCCC[N+](C)(C)[O-]
inactive

Recorded test call requested for Nc1nc(Cl)nc2c1ncn2[C@H]1C[C@H](O)[C@@H](CO)O1
active

Recorded test call requested for CCc1nc(N)nc(N)c1-c1ccc(Cl)cc1
inactive

Recorded test call requested for CCCCC(CC)CO (stereo not given)
inactive

Recorded test call requested for O=C1OC(c2ccc(O)cc2)(c2ccc(O)cc2)c2ccccc21
inactive

Recorded test call requested for C=CCc1ccc(OC)c(OC)c1
inactive

Recorded test call requested for O=C1CCCCC1
inactive

Recorded test call requested for CC(C)OC(=O)C(C)(C)Oc1ccc(C(=O)c2ccc(Cl)cc2)cc1
inactive

Recorded test call requested for COc1ccc(OC(F)(F)F)cc1CN[C@H]1CCCN[C@H]1c1ccccc1
inactive

Recorded test call requested for O=Cc1ccccc1C=O
inactive

Recorded test call requested for Cc1occc(=O)c1O
inactive

Recorded test call requested for CC(=O)O[C@]1(C(C)=O)CC[C@H]2[C@@H]3C=C(Cl)C4=CC(=O)[C@@H]5C[C@@H]5[C@]4(C)[C@H]3CC[C@@]21C
inactive

Recorded test call requested for COC(=O)CCCC(=O)OC
inactive

Recorded test call requested for O=C(N[C@@H](c1ccccc1)[C@@H]1CCCCN1)c1cccc(C(F)(F)F)c1Cl
active

Recorded test call requested for CC1(C)C(=O)NC(=O)N1CO
inactive

Recorded test call requested for CC(C)c1cccc(C(C)C)c1
inactive

Recorded test call requested for Cc1ccc(-c2cc(C(F)(F)F)nn2-c2ccc(S(N)(=O)=O)cc2)cc1
active

Recorded test call requested for CSc1ccc(Oc2ccc(S(N)(=O)=O)cc2CN(C)C)cc1C
inactive

Recorded test call requested for O=C(O)CN(CC(=O)O)CC(=O)O
inactive

Recorded test call requested for CCCCOC(=O)CCCCC(=O)OCCCC
inactive

Recorded test call requested for COC(=O)[C@H]1[C@H]2C[C@@H]3c4[nH]c5cc(OC)ccc5c4CCN3C[C@H]2C[C@@H](OC(=O)c2cc(OC)c(OC)c(OC)c2)[C@@H]1OC
active

Recorded test call requested for Nc1nc(=S)c2[nH]cnc2[nH]1
inactive

Recorded test call requested for CN(C)C(=O)NC1(c2ccccc2)CCN(CCC[C@]2(c3ccc(Cl)c(Cl)c3)CCCN(C(=O)c3ccccc3)C2)CC1
inactive
